Biological target: HIV-1 Env of BG505.w6m (HIV-1)
Test: cell-based or functional assay
# Lookup of reported neutralization IC50 keyed by entry

Examples with answers:
>>> obs_value("CAP256-VRC26.11 (antibody, V domains shown) VH: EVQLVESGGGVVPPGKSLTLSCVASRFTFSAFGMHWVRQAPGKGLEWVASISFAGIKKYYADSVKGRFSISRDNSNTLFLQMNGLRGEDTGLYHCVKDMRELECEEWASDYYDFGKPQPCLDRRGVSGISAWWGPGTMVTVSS VL: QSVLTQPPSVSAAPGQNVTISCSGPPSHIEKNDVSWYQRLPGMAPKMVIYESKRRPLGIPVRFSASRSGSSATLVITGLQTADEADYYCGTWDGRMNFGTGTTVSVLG")
"4.2 µg/mL"
>>> obs_value("CAP256-VRC26.06 (antibody, V domains shown) VH: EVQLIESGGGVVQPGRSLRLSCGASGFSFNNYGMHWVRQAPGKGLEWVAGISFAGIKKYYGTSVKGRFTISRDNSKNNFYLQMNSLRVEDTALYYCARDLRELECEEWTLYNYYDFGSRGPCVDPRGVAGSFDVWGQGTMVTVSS VL: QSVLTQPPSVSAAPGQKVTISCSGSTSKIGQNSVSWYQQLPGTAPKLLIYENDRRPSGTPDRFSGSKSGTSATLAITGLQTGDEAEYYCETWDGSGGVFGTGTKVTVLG")
"> 50 µg/mL"

From here, focus on the item given below.
Assign neutralization IC50 to the following record: CAP256-VRC26.10 (antibody, V domains shown) VH: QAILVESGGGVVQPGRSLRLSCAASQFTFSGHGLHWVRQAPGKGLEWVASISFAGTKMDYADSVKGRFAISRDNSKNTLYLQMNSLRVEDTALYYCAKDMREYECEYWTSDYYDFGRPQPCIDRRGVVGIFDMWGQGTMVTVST VL: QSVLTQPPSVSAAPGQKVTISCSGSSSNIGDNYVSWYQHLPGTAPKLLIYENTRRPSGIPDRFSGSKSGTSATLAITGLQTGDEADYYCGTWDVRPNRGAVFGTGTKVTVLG
> 50 µg/mL

The measured values listed here are drawn from patent US20200199204A1.
